Assay: NCI Yeast Anticancer Drug Screen. Data for the mec2-1 strain (AID 157)
Settings: S. cerevisiae mec2-1 strain, active compounds read high; at 50.0 µM unless noted
This is part of a sample that, as a whole, favours compounds with a hit. Of some 79,000 tested, about 15% had one in any assay.
RECORDED_METRIC: growth inhibition (%)
Answer format: numeric, % implied, no suffix.

growth inhibition reading for "CNc1nc(=O)[nH]c(C)c1[N+](=O)[O-]" : 4.45

growth inhibition reading for "Cc1c(NC(=S)NC(=O)c2ccc([N+](=O)[O-])cc2)c(=O)n(-c2ccccc2)n1C" : 5.7

growth inhibition reading for "COc1ccc(C(=O)CN2CCN(c3ccccc3)CC2)cc1" : -7.05

growth inhibition reading for "Nc1nc2cc3nc(N)c(N)nc3cc2nc1N" : 14.7

growth inhibition reading for COC(=O)C1(c2ccccc2)N=C(c2ccc(C)cc2)ON1c1ccccc1 (configuration not stated) : 7.05

growth inhibition reading for "Cc1cc2nncn2c2ccccc12" : -3.55

growth inhibition reading for "O=c1c2cc(Cl)ccc2c2ccc(Cl)cc2c(=O)n1-c1ccc2c(c1)Cc1ccccc1-2" : -0.2

growth inhibition reading for "O=C(CCC(=O)c1ccccc1)NCc1ccccc1" : -6.2

growth inhibition reading for "O=C1Nc2cc(Br)ccc2C1=O" : 23.1

growth inhibition reading for "Cc1ccccc1-c1nc2c(N)nc(N)nc2nc1N" : -12.8

growth inhibition reading for CCCCOC(=O)C1CN2C=CC=NC2=NC1(C(F)(F)F)C(F)(F)F (configuration not stated) : 27

growth inhibition reading for "COc1cc(OC)c(I)cc1Cl" : -37.5

growth inhibition reading for "COc1ccc(Cl)cc1NC(=O)Oc1ccc(NC(C)=O)cc1" : -0.6

growth inhibition reading for "O=C(O)c1c(O)cc(=O)oc1-c1ccc(Cl)cc1" : 0.9

growth inhibition reading for "Cc1nc2[nH]ncc2c(=O)n1-c1ccccc1Cl" : -4.1

growth inhibition reading for Cc1cc(=O)[nH]c(NNC(C#N)c2cccc([N+](=O)[O-])c2)n1 (configuration not stated) : -11.1

growth inhibition reading for "CCOC(=O)C1=C(O)C(=O)C=C(O)C1=N" : -2.6

growth inhibition reading for CC12C(=O)C(C(c3ccccc3)=C1c1ccccc1)C1C(=O)OC(=O)C12 (configuration not stated) : 2.8

growth inhibition reading for "O=c1cc2ccc(Cl)cc2n[nH]1" : 2.7

growth inhibition reading for "CCOC(=O)CCN(CCC(=O)OCC)N(C)C" : -6.45

growth inhibition reading for "CC(C)(C)OC(=O)N1CCC2(CC1)C(=O)NCN2c1ccccc1" : 11.9

growth inhibition reading for "Cc1cc(C)c([N+](=O)[O-])cc1N" : 15.1

growth inhibition reading for "c1ccc2cnncc2c1" : -0.55

growth inhibition reading for "CC(C)(C)c1ccncc1" : 16.1

growth inhibition reading for "CN(C)c1ccc(/C=N/Nc2nc3ccccc3c(=O)n2-c2ccccc2)cc1" : -16.1

growth inhibition reading for COC(=O)N1C=NC2C3(C)C(C)=C(C)C3(C)C21C (configuration not stated) : -3.55

growth inhibition reading for CC(C)CC1N=C(NN=C(CCl)CCl)OP1(=O)NCCCCCCNP1(=O)OC(NN=C(CCl)CCl)=NC1CC(C)C (configuration not stated) : 5.05

* * *

Assay: NCI Yeast Anticancer Drug Screen. Data for the mec2-1 strain (AID 157)
Details: S. cerevisiae mec2-1 strain, active compounds read high; at 50.0 µM unless noted
The panel holds about 79,000 compounds, 15% with a hit somewhere; the sample as a whole holds those more often. The source made the active and inactive calls. Rule as the data show it: active = growth inhibition above about 70%; inactive = the rest.
Hi there, I'd appreciate the recorded growth inhibition for every entry that follows.

growth inhibition reading for c1ccc(C2c3ccccc3CN2c2ccccc2)cc1 (stereo unspecified) : 6.2% (inactive)

growth inhibition reading for C=C1CC2C=CC1C2 (stereo unspecified) : -25.4% (inactive)

growth inhibition reading for "CCOC(=N)n1c(=O)n(C2=NCCN2)c2ccccc21" : 0.35% (inactive)

growth inhibition reading for COc1cc2c(cc1OC)C1Cc3ccccc3CCN1CC2 (stereo unspecified) : -7.1% (inactive)

growth inhibition reading for "CN(C(=O)c1cccc([N+](=O)[O-])c1)C1CCCCC1" : 34.5% (inactive)

growth inhibition reading for "Cc1ccc(C=NC23CC4CC(CC(C4)C2)C3)cc1" : -28.6% (inactive)

growth inhibition reading for "CNS(=O)(=O)c1ccc(C)c(C)c1" : -13.9% (inactive)

growth inhibition reading for "CCOC(=O)/N=N/C(C)(C)OC(C)=O" : 9.25% (inactive)

growth inhibition reading for "O=C1C(c2ccccc2)=C(c2ccccc2)C1(Cl)Cl" : -6.1% (inactive)

growth inhibition reading for "Nc1nc(CCc2ccc(NC(=O)CBr)cc2)c(CCCCc2ccccc2)c(=O)[nH]1" : 1.85% (inactive)

growth inhibition reading for COC1=C2CC(C)CC(OC)C(O)C(C)/C=C(\C)C(OC(N)=O)C(OC)/C=C\C=C(/C)C(=O)NC(=C(/C=N/N3CCCCC3)C1=O)C2=O (stereo unspecified) : 10.3% (inactive)

growth inhibition reading for CCN(CC)CCC1CCCCN1CC(=O)N1c2ccccc2NC(=O)c2ccccc21 (stereo unspecified) : 2% (inactive)

growth inhibition reading for O=C(/C=C/c1ccc(O)c(O)c1)OC1CC(O)(C(=O)O)CC(O)C1O (stereo unspecified) (tested in a mixture with another compound) : -13.9% (inactive)

growth inhibition reading for CCCOc1cc2c(cc1C(C)c1ccc(OC)c(C)c1)OCO2 (stereo unspecified) : 3.45% (inactive)

growth inhibition reading for O=C(O)C1CC(=O)N(Cc2ccccc2)C1 (stereo unspecified) : 33.3% (inactive)

growth inhibition reading for NC(CC(=O)c1ccccc1NC=O)C(=O)O (stereo unspecified) : -1.4% (inactive)

growth inhibition reading for "O=C(O)Nc1ccc(I)cc1" : -10.2% (inactive)

growth inhibition reading for "COc1ccc(/C=N/N=C(/C(=O)c2ccc(OC)cc2)c2ccc(OC)cc2)cc1" : 0.3% (inactive)

growth inhibition reading for "C/C(=C\C(=O)c1ccc(Sc2ccccc2)cc1)c1ccc(Sc2ccccc2)cc1" : -4.85% (inactive)

growth inhibition reading for CCN1c2ccccc2CC(CCCN(C)C)(C(N)=O)c2ccccc21 (stereo unspecified) : 12.3% (inactive)

growth inhibition reading for "COc1cc(CCCC(C(=O)O)C(=O)O)cc(OC)c1OC" : -13.3% (inactive)

growth inhibition reading for C#CCN(N=O)C(=O)NCCCCC(NC(=O)OCc1ccccc1)C(=O)OCc1ccccc1 (stereo unspecified) : -8.15% (inactive)

growth inhibition reading for CCOC(=O)C(CC(C)C)NC(=O)c1c2nc3c(C(=O)NC(CC(C)C)C(=O)OCC)cc(NC(C)=O)c(C)c3oc-2c(C)c(=O)c1N (stereo unspecified) : 34.5% (inactive)

growth inhibition reading for "Cc1ccc(-c2ccc(C)cc2C(=O)O)c(C(=O)O)c1" : 1% (inactive)

growth inhibition reading for "Cc1cc(C(C)(C)C)cc(CNC2CCCCC2)c1O" : -27.4% (inactive)

growth inhibition reading for "CCN(CC)OC(=O)/C=C/c1ccccc1" : 5.5% (inactive)

growth inhibition reading for "FC(F)(F)c1ccc2nc(NCc3ccccc3)c(-c3ccccc3)nc2c1" : 15.6% (inactive)

growth inhibition reading for "COc1ccc(C(=O)Oc2ccccc2C(C)=O)cc1" : -7.05% (inactive)

growth inhibition reading for CCCCCCCCCCCCCCCCCCS(=O)(=O)CC(O)CO (stereo unspecified) : 5.2% (inactive)

growth inhibition reading for "N#C/C=C\c1ccc(-c2cc(C(F)(F)F)cc(C(F)(F)F)c2)o1" : -22.6% (inactive)

growth inhibition reading for COc1c2c(cc3c1C(CCCc1ccccc1)N(C)CC3)OCO2 (stereo unspecified) : 7.6% (inactive)

growth inhibition reading for "CC(=O)Oc1ccc2c(c1)[nH]c1c3ccc(OC(C)=O)cc3oc(=O)c21" : -26.9% (inactive)

growth inhibition reading for C(CCCC1CO1)CCC1CO1 (stereo unspecified) : 18.3% (inactive)

growth inhibition reading for CC(O)C(=O)OCCOc1ccc(Cl)cc1Cl (stereo unspecified) : 10.3% (inactive)

growth inhibition reading for "O=S(=O)(c1ccc(Cl)cc1)S(=O)(=O)c1ccc(Cl)cc1" : 8.5% (inactive)

growth inhibition reading for "CCOC(=O)/C(C#N)=C/c1ccccc1Cl" : -6.3% (inactive)
